Recorded values, source patent US20160051543A1.

assay.remarks: clinical
protocol.conditions: human, in vivo, 100 mg
reported.endpoint: half-life

Can you look up the measured half-life of `Fc1ccc(C(OCCN2CCN(CCCc3ccccc3)CC2)c2ccc(F)cc2)cc1` for me? 5.56 to 125 h

====

assay.remarks: clinical
protocol.conditions: human, in vivo, 75 mg
Text: The results are listed below in Table 7.
reported.endpoint: half-life

Can you look up the measured half-life of Fc1ccc(C(OCCN2CCN(CCCc3ccccc3)CC2)c2ccc(F)cc2)cc1 [Vanoxerine] for me? 10.3 to 117 h

====

assay.remarks: clinical
protocol.conditions: human, in vivo, 50 mg
reported.endpoint: half-life

Can you look up the measured half-life of `Fc1ccc(C(OCCN2CCN(CCCc3ccccc3)CC2)c2ccc(F)cc2)cc1` for me? 4.71 to 111 h
